tested on: velvetleaf; test: Herbicidal activity test against upland field weeds (soil treatment test); type: in vivo; parameters: key: 0 (no control); 100 (complete control); settings: 50 g ai/ha, scale 0 (no control) to 100 (complete control)
Some molecules, each annotated with its measured Soil treatment herbicidal activity, velvet leaf.
ASSAY READOUT: Soil treatment herbicidal activity, velvet leaf

{"columns": ["MOLECULE", "RECORDED NUMBER"],
 "data": [
  ["Cn1nnc(CN(OCc2ccccc2)c2nc(C(F)(F)F)ccc2C(=O)Nc2nnnn2C)n1 [Compound No. 2-29]", 0],
  ["Cn1nnc(COCc2nc(C(F)(F)Cl)ccc2C(=O)Nc2nnnn2C)n1 [Compound No. 2-78]", 100],
  ["CON(Cc1nnn(C)n1)Cc1nc(C(F)F)ccc1C(=O)Nc1nnnn1C [Compound No. 2-86]", 100],
  ["CON(Cc1nnn(C)n1)c1nc(C(F)(F)F)ccc1C(=O)Nc1nnnn1C [Compound No. 2-30]", 100],
  ["Cn1nnc(CS(=O)(=O)Cc2nc(C(F)(F)F)ccc2C(=O)Nc2nnnn2C)n1 [Compound No. 2-105]", 100],
  ["CN(C(=O)c1ccc(C(F)(F)F)nc1OCc1nnnn1C(F)F)c1nnnn1C [Compound No. 1-8]", 100],
  ["Cn1nnc(CSCc2nc(C(F)(F)F)ccc2C(=O)Nc2nnnn2C)n1 [Compound No. 2-102]", 100],
  ["Cn1nnc(COCc2nc(C(F)(F)F)ccc2C(=S)Nc2nnnn2C)n1 [Compound No. 2-106]", 100],
  ["Cn1nnc(COc2nc(C(F)(F)F)ccc2C(=O)Nc2nnnn2C)n1 [Compound No. 2-1]", 0],
  ["Cn1nnc(COCc2nc(C(F)(F)F)ccc2C(=O)Nc2nnnn2C)n1 [Compound No. 2-59]", 100],
  ["CCOC(=O)OC(C)N(C(=S)c1ccc(C(F)(F)F)nc1CSCc1nnn(C)n1)c1nnnn1C (centres unmarked) [Compound No. 4-9]", 100],
  ["COC(=O)OC(C)N(C(=O)c1ccc(C(F)(F)F)nc1COCc1nnn(C)n1)c1nnnn1C (centres unmarked) [Compound No. 4-4]", 100],
  ["Cn1nnc(CSCc2nc(C(F)(F)F)ccc2C(=O)N(C(=O)c2ccccc2)c2nnnn2C)n1 [Compound No. 2-109]", 100],
  ["Cn1nnc(COCc2nc(C(F)F)ccc2C(=O)Nc2nnnn2C)n1 [Compound No. 2-84]", 100],
  ["COC(=O)OC(C)N(C(=O)c1ccc(C(F)(F)F)nc1CSCc1nnn(C)n1)c1nnnn1C (centres unmarked) [Compound No. 4-3]", 50],
  ["C#CCN(Cc1nnn(C)n1)c1nc(C(F)(F)F)ccc1C(=O)Nc1nnnn1C [Compound No. 2-28]", 100],
  ["Cn1nnc(CSCc2nc(C(F)(F)F)ccc2C(=S)Nc2nnnn2C)n1 [Compound No. 2-107]", 100],
  ["CCOC(=O)OC(C)N(C(=O)c1ccc(C(F)(F)F)nc1COCc1nnn(C)n1)c1nnnn1C (centres unmarked) [Compound No. 4-8]", 100],
  ["CON(Cc1nnn(C)n1)Cc1nc(C(F)(F)Cl)ccc1C(=O)Nc1nnnn1C [Compound No. 2-79]", 100],
  ["Cn1nnc(CSCc2nc(C(F)F)ccc2C(=O)N(C(=O)c2ccccc2)c2nnnn2C)n1 [Compound No. 2-112]", 100],
  ["Cn1nnc(CSCc2nc(C(F)F)ccc2C(=O)Nc2nnnn2C)n1 [Compound No. 2-108]", 0],
  ["Cn1nnc(C[S+]([O-])Cc2nc(C(F)(F)F)ccc2C(=O)Nc2nnnn2C)n1 (centres unmarked) [Compound No. 2-104]", 100],
  ["Cn1nc(COCc2nc(C(F)(F)F)ccc2C(=O)Nc2nnnn2C)nc1Cl [Compound No. 2-135]", 0],
  ["Cn1nnc(COCc2nc(C(F)(F)F)ccc2C(=O)N(C(=O)c2ccccc2)c2nnnn2C)n1 [Compound No. 2-68]", 100],
  ["CON(Cc1nc(C(F)(F)F)ccc1C(=O)Nc1nnnn1C)Cc1ncnn1C [Compound No. 1-91]", 100],
  ["Cn1cnc(COCc2nc(C(F)(F)C(F)(F)F)ccc2C(=O)Nc2nnnn2C)n1 [Compound No. 2-83]", 100],
  ["Cn1nnnc1NC(=O)c1ccc(C(F)(F)F)nc1OCc1nnnn1C(F)F [Compound No. 1-26]", 100],
  ["CCON(Cc1nnn(C)n1)c1nc(C(F)(F)F)ccc1C(=O)Nc1nnnn1C [Compound No. 2-31]", 100],
  ["Cn1ncnc1COc1nc(C(F)(F)F)ccc1C(=O)Nc1nnnn1C [Compound No. 1-45]", 100],
  ["Cn1nnc(C[S+]([O-])Cc2nc(C(F)F)ccc2C(=O)Nc2nnnn2C)n1 (centres unmarked) [Compound No. 2-111]", 0],
  ["CC(C)OC(=O)OC(C)N(C(=O)c1ccc(C(F)(F)F)nc1COCc1nnn(C)n1)c1nnnn1C (centres unmarked) [Compound No. 4-12]", 100],
  ["Cn1nnnc1COc1nc(C(F)(F)F)ccc1C(=O)Nc1nnnn1C [Compound No. 1-1]", 100]
]}
